test system: HTT; experiment: HiBiT protein abundance assay, HTT (K562 HiBiT knock-in); type: cell-based, human; conditions: HiBiT knock-in K562 cells, 24 hours, top dose 10 μM
pIC50: −log10 of the molar value.
quantity kind: pIC50

Examples with their reported pIC50 follow.
1) Cn1cc2cc(-c3ccc4nc(N5CCC(NC6CC6)C5)ccc4n3)c(O)c(F)c2n1 (racemic) : > 7.00
2) CC(C)N[C@H]1CCN(c2ccc3nc(-c4cc5cn(C)nc5c(F)c4O)ccc3n2)C1 (single isomer, unassigned) : > 7.00
3) CNC(=O)c1nc(-c2cc3cn(C)nc3c(C)c2O)nc2ccc(N3CCC(NC)C3)cc12 (stereo not shown) : > 7.00
4) Cc1c(O)c(-c2ncc3nc(C4CCNCC4)ccc3n2)cc2cn(C)nc12 : 6.00 to 7.00
5) C[C@H]1CN(c2ccc3nc(-c4cc5cn(C)nc5c(F)c4O)ncc3c2)C[C@H](C)N1 : > 7.00

Short answer for `CNC(=O)c1nc(-c2cc3cn(C)nc3c(F)c2O)nc2ccc(N3CC[C@@H](NC)C3)cc12` : pIC50 was > 7.00

Short answer for `Cn1cc2cc(-c3ccc4nc(N5CCC56CCNCC6)ccc4n3)c(O)cc2n1` : pIC50 was 6.00 to 7.00

* * *

system: MYB; assay: HiBiT protein abundance assay, MYB (K562 HiBiT knock-in); format: cell-based, human; conditions: HiBiT knock-in K562 cells, 24 hours, top dose 10 μM
pIC50: −log10 of the molar value.
Consider the following compounds and their measured pIC50 readings.

Examples with their reported pIC50 follow.
1. CC(=O)c1nc(-c2cc3cn(C)nc3c(F)c2O)nc2ccc(N3C[C@@H](C)N[C@@H](C)C3)cc12 [Compound 717] : > 7.00
2. Cn1cc2cc(-c3ccc4nc(N5CCC(NC(C)(C)C)C5)ccc4n3)c(O)c(F)c2n1 (stereo not drawn) [Compound 202] : > 7.00
3. Cc1nc2c(C)c(O)c(-c3ccc4nc(N5CC[C@H](NC(C)(C)C)C5)ccc4n3)cc2o1 [Compound 214] : > 7.00

Short answer for Cc1cn2nc(-c3ccc4nc(C5CCNCC5)ccc4n3)c(O)c2c(C)n1 [Compound 150] : pIC50 was > 7.00

Short answer for Cn1cc2nc(-c3ccc4nc(N5CCC(NC(C)(C)C)C5)ccc4n3)c(O)cc2n1 (stereo not drawn) [Compound 298] : pIC50 was > 7.00

Short answer for CCN[C@@H]1CCN(c2ccc3nc(-c4cc5cn(C)nc5cc4O)ccc3n2)C1 [Compound 180] : pIC50 was > 7.00

Short answer for CN1CCC2(CC1)CCN2c1ccc2nc(-c3cc4cn(C)nc4cc3O)ccc2n1 [Compound 169] : pIC50 was 5.00 to 6.00

Short answer for Cc1c(O)c(-c2ccc3nc(N4CC[C@H](NC5(C)CC5)C4)ccc3n2)cc2cn(C)nc12 [Compound 226] : pIC50 was > 7.00

* * *

test system: Target C; assay: RT-qPCR canonical junction panel assay, Target C mRNA; type: cell-based; settings: Table 4, read-out: Target C IC50 (decrease in CJ mRNA levels)
quantity kind: IC50

Examples with their reported IC50 follow.
1) C[C@H]1CN(c2ccc3nc(-c4cc5cn(C)nc5cc4O)nc(C(N)=O)c3c2)C[C@H](C)N1 [Compound 797] : > 10000 nM
2) CNC1CCN(c2cc3c(Cl)cc(-c4cc5cn(C)nc5c(C)c4O)nc3cc2C)C1 (stereo not shown) [Compound 486] : 1000 to 10000 nM
3) C[C@@H]1CN(c2ccc3nc(-c4cc(F)c5nn(C)cc5c4)ncc3c2)C[C@H](C)N1 [Compound 780] : 1000 to 10000 nM
4) Cc1c(O)c(-c2nc(C3CCC3)c3cc(N4C[C@@H](C)N[C@@H](C)C4)ccc3n2)cc2cn(C)nc12 [Compound 790] : > 10000 nM
5) COc1cc2nc(C3COC3)oc2cc1-c1ccc2nc(N3CCC(NC(C)(C)C)C3)ccc2n1 (stereo not shown) [Compound 335] : 1000 to 10000 nM

Target C IC50 of Cn1cc2cc(-c3ccc4cc(N5CCC(NC(C)(C)C)C5)ncc4n3)c(O)cc2n1 (stereo not shown) [Compound 449] is 1000 to 10000 nM

Target C IC50 of Cc1cn2cc(-c3ncc4cc(N5C[C@@H](C)N[C@@H](C)C5)ccc4n3)cc(F)c2n1 [Compound 773] is 1000 to 10000 nM

Target C IC50 of Cc1nc2c(C)c(O)c(-c3ccc4nc(N5CC[C@H](NC(C)(C)C)C5)ccc4n3)cc2o1 [Compound 214] is < 100 nM

Target C IC50 of Cc1nc2c(C)c(O)c(-c3ccc4nc(N5CC[C@H](NC6CC6)C5)ccc4n3)cc2o1 [Compound 216] is < 100 nM

Target C IC50 of Cc1cn2cc(-c3ncc4cc(N5C[C@@H](C)NC6(CC6)C5)ccc4n3)cc(F)c2n1 (single isomer, unassigned) [Compound 815] is > 10000 nM

Target C IC50 of C[C@@H]1CN(c2ccc3nc(-c4cc5cn(C)nc5c(F)c4O)nc(-c4nccs4)c3c2)C[C@H](C)N1 [Compound 732] is > 10000 nM

Target C IC50 of Cc1cn2cc(-c3nc(C(=O)NC4CCC4)c4cc(N5C[C@@H](C)N[C@@H](C)C5)ccc4n3)cc(F)c2n1 [Compound 779] is 1000 to 10000 nM

Target C IC50 of Cc1nc2c(C)c(O)c(-c3ccc4nc(N5CC[C@H](NCC6CC6)C5)ccc4n3)cc2o1 (single isomer, unassigned) [Compound 296] is < 100 nM

Target C IC50 of Cc1nc2c(C)c(O)c(-c3ccc4cc(N5CC[C@@H](NC(C)(C)C)C5)ncc4n3)cc2o1 (single isomer, unassigned) [Compound 444] is 100 to 1000 nM

Target C IC50 of Cn1cc2cc(-c3ncc4nc(N5CC[C@@H](N)C5)ccc4n3)c(O)c(F)c2n1 (single isomer, unassigned) [Compound 380] is 1000 to 10000 nM

Target C IC50 of Cc1cn2cc(-c3ncc4cc(N5C[C@H](C)N(C)[C@@H](C)C5)ccc4n3)cc(F)c2n1 [Compound 824] is 1000 to 10000 nM

Target C IC50 of Cc1nc(-c2cc(F)c3nn(C)cc3c2)nc2ccc(N3C[C@@H](C)N[C@@H](C)C3)cc12 [Compound 781] is > 10000 nM

Target C IC50 of C[C@H]1CN(c2ccc3nc(-c4cc5cn(C)nc5cc4O)ncc3c2)CC2(CC2)N1 (single isomer, unassigned) [Compound 812] is 1000 to 10000 nM

Target C IC50 of Cc1nc2c(C)c(O)c(-c3ccc4nc(N5CC[C@H](NC6CC6)C5)ncc4n3)cc2o1 [Compound 433] is 100 to 1000 nM

Target C IC50 of Cc1cn2cc(-c3ncc4cc(N5C[C@H](C)N[C@@H](C)C5)ccc4n3)cc(Cl)c2n1 (single isomer, unassigned) [Compound 818] is 1000 to 10000 nM
